# Test system: Fibroblast
# method_summary: Multiplex assay against human fibroblast
# Format: toxicity, cell-based
# setup_conditions: 48 h, 1 µM, compound concentration 1 uM, replicate 2
So I've got a bunch of molecules here, and I need their Population Apoptotic (%) values.
Write down the numeric answer in % and omit the unit.

Query string: Dear colleague, I am looking for the recorded Population Apoptotic (%) of the following molecule: OC1(c2ccc(Cl)cc2)CCN(Cc2c[nH]c3ccccc23)CC1
Result string: 50

Query string: # iterate: c1cn2cc(-c3ccc4cn[nH]c4c3)nc(Nc3ccc(N4CCOCC4)cc3)c2n1
Result string: 33

Query string: Continue with Cl.N#Cc1ccc2[nH]cc(CCCCN3CCN(c4ccc5oc(C(N)=O)cc5c4)CC3)c2c1 [VILAZODONE HYDROCHLORIDE]
Result string: 33

Query string: What do you get for CN1CCN(c2ccc(OC(F)(F)F)c(Nc3ncc4c(n3)-c3c(c(C(N)=O)nn3CCO)CC4)c2)CC1 ?
Result string: 40

Query string: What would you report for Cc1nc(-c2ccc(-c3ccc(C(=O)N4CCc5cc6c(cc54)C4(CCN(C)CC4)CO6)cc3)c(C)c2)no1 ?
Result string: 0

###

# System: U2OS
# method_summary: Multiplex assay against U2OS
# Assay type: toxicity, cell-based
# setup_conditions: human, 12 h, 1 µM, compound concentration 1 uM, replicate 1
result_type: Population Membrane Permeable-Phenotype (%)
Just the number please, in %, no unit attached.

Query string: What value of Population Membrane Permeable-Phenotype (%) has been reported for the following compound? CC[C@H](C)C(=O)O[C@H]1C[C@@H](C)C=C2C=C[C@H](C)[C@H](CC[C@@H]3C[C@@H](O)CC(=O)O3)[C@H]21
Result string: 7

Query string: // next record COc1cc2nccc(Oc3ccc(NC(=O)Nc4cc(C)on4)c(Cl)c3)c2cc1OC.O
Result string: 26

Query string: Now the same for CN(C)C(=O)/C(C#N)=C/c1ccc(-c2nc3cnc4[nH]ccc4c3n2C2CCCCC2)o1
Result string: 5

Query string: Next compound: Cl.N#Cc1ccc2[nH]cc(CCCCN3CCN(c4ccc5oc(C(N)=O)cc5c4)CC3)c2c1 [VILAZODONE HYDROCHLORIDE]
Result string: 4

Query string: // repeat for C=CC(=O)Nc1cc2c(Nc3ccc(F)c(Cl)c3)ncnc2cc1OCCCN1CCOCC1.Cl.Cl [CANERTINIB DIHYDROCHLORIDE] and report
Result string: 0

Query string: Item: CN1CCN(CCOc2cc(OC3CCOCC3)c3c(Nc4c(Cl)ccc5c4OCO5)ncnc3c2)CC1
Result string: 5

Query string: Also need CN1CCC[C@@H]1CCO[C@](C)(c1ccccc1)c1ccc(Cl)cc1.O=C(O)/C=C/C(=O)O [CLEMASTINE FUMARATE] , thanks.
Result string: 5

###

# Tested on: Fibroblast
# method_summary: Multiplex assay against human fibroblast
# Format: toxicity, cell-based
# setup_conditions: 24 h, 10 µM, compound concentration 10 uM, replicate 2
Assign 1.0 whenever Population Pyknosed Nuclei (%) does not fall below 10%; assign 0.0 whenever it does.

Query string: Check this compound for Population Pyknosed Nuclei (%) at or above 10%: COc1cc2nccc(Oc3ccc(NC(=O)Nc4cc(C)on4)c(Cl)c3)c2cc1OC.O
Result string: 1.0

Query string: Further, for Cc1nc(Nc2n[nH]c3c2CN(C(=O)N[C@H](CN(C)C)c2ccccc2)C3(C)C)c2sccc2n1 [PF-03758309] ?
Result string: 0.0

Query string: Also check CC(C)NCC(O)COc1ccc(CCOCC2CC2)cc1.Cl (stereo not drawn) [BETAXOLOL HYDROCHLORIDE]
Result string: 1.0

Query string: CN1CCN(CCOc2cc(OC3CCOCC3)c3c(Nc4c(Cl)ccc5c4OCO5)ncnc3c2)CC1 [SARACATINIB] ?
Result string: 1.0

Query string: Similarly, Cl.N#Cc1ccc2[nH]cc(CCCCN3CCN(c4ccc5oc(C(N)=O)cc5c4)CC3)c2c1 [VILAZODONE HYDROCHLORIDE] ?
Result string: 1.0

Query string: Input Cn1c(-c2csc(C3CCN(CC4=NC5N=CC=CC5N4)CC3)n2)nc2ccccc21 (stereo not drawn) [BAY-070]
Result string: 1.0

Query string: Also, CN1CCC[C@@H]1CCO[C@](C)(c1ccccc1)c1ccc(Cl)cc1.O=C(O)/C=C/C(=O)O [CLEMASTINE FUMARATE] please.
Result string: 1.0

Query string: Repeat for the following compound: Cc1csc2c(N[C@@H](C)CN3CCN(S(=O)(=O)c4ccc(Cl)c(Cl)c4)CC3)ncnc12
Result string: 1.0

Query string: What do we get for CNCc1ccc(-c2cc(-c3nc(-c4ccc(S(=O)(=O)C(C)C)cc4)cnc3N)on2)cc1 [BERZOSERTIB] ?
Result string: 1.0

Query string: Now the same for CN(C)C(=O)N[C@H]1CC[C@H](CCN2CCN(c3cccc(Cl)c3Cl)CC2)CC1.Cl [CARIPRAZINE HYDROCHLORIDE]
Result string: 1.0

Query string: Now try C=CC(=O)Nc1cccc(C(=O)Nc2ccc(Nc3cc(-c4[nH]c(SC)nc4C)ccn3)cc2)c1 .
Result string: 0.0

Query string: Repeat for the following compound: Cc1[nH]c(/C=C2\C(=O)Nc3ccc(S(=O)(=O)N(C)c4cccc(Cl)c4)cc32)c(C)c1C(=O)N1CCN(C)CC1
Result string: 0.0

Query string: // repeat for COc1cccc([C@@H](C)NCCCc2ccccc2Cl)c1.Cl [TECALCET HYDROCHLORIDE] and report
Result string: 1.0

Query string: What would you report for C=CC(=O)Nc1cc2c(Nc3ccc(F)c(Cl)c3)ncnc2cc1OCCCN1CCOCC1.Cl.Cl [CANERTINIB DIHYDROCHLORIDE] ?
Result string: 0.0

Query string: Also check c1cn2cc(-c3ccc4cn[nH]c4c3)nc(Nc3ccc(N4CCOCC4)cc3)c2n1 [ENTOSPLETINIB]
Result string: 1.0

Query string: And then CC[C@H](C)C(=O)O[C@H]1C[C@@H](C)C=C2C=C[C@H](C)[C@H](CC[C@@H]3C[C@@H](O)CC(=O)O3)[C@H]21 [LOVASTATIN] , what is it?
Result string: 1.0

Query string: And what about the compound C[C@@H](NCCCc1cccc(C(F)(F)F)c1)c1cccc2ccccc12.Cl [CINACALCET HYDROCHLORIDE] ?
Result string: 1.0

Query string: Same for CCN(CC)CCCCNc1ncc2cc(-c3cc(OC)cc(OC)c3)c(NC(=O)NC(C)(C)C)nc2n1 [PD-173074]
Result string: 1.0
